viability, T/C values by entry
System: 695427-040-R-J1-PDC complex spheroid viability
Assay: Anticancer human tumor 695427-040-R-J1-PDC patient-derived colon adenocarcinoma cell line growth inhibition [RAS]
Details: second compound 0.0316 µM; first compound 0.0316 µM; stronger effect = lower value
From the text: RAS pathway inhibitors in Combinations in Complex Spheroids A high-throughput screen of multi-cell type tumor spheroids was designed to identify active combinations of RAS pathway inhibitors and targeted small molecules. Complex spheroids include a stromal component modeled by human endothelial cells (HUVEC) and fibroblasts modeled by human mesenchymal stem cells (MSCs). […] Compounds. […] If the clinical Cmax for an agent had not been determined, the highest concentration tested was 10 microM. […]
Just the number in %, nothing appended.

Look over these answered cases.
// viability, T/C value for CC(Nc1ccc2c(c1)OCCn1cc(N3C(=O)OCC3C(F)F)nc1-2)C(N)=O (stereo not drawn) + C#Cc1c(F)ccc2cc(O)cc(-c3ncc4c(N5CC6CCC(C5)N6)nc(OCC56CCCN5CC(F)C6)nc4c3F)c12 : 78.2

Entry CC(C)NCC(C(=O)N1CCN(c2ncnc3c2C(C)CC3O)CC1)c1ccc(Cl)cc1 (stereo not drawn) + C#Cc1c(F)ccc2cc(O)cc(-c3ncc4c(N5CC6CCC(C5)N6)nc(OCC56CCCN5CC(F)C6)nc4c3F)c12 — recorded viability, T/C = 111

The reported viability, T/C of the molecule CCN1CCN(Cc2ccc(Nc3ncc(F)c(-c4cc(F)c5nc(C)n(C(C)C)c5c4)n3)nc2)CC1 + C=CC(=O)N1CCN(c2nc(OCC3CCCN3C)nc3c(F)c(-c4nc(N)cc(C)c4C(F)(F)F)c(Cl)cc23)C(C)C1 was 95.3

Query Cc1nc(N2CCC3(CC2)COC(C)C3N)c(CO)nc1Sc1ccnc(N)c1Cl (stereo not drawn) + C=CC(=O)N1CCN(c2nc(OCC3CCCN3C)nc3c(F)c(-c4nc(N)cc(C)c4C(F)(F)F)c(Cl)cc23)C(C)C1 yields viability, T/C of 88.8

Memo: O=C(c1ccc(F)c(F)c1Nc1ccc(I)cc1F)N1CC(O)([C@@H]2CCCCN2)C1 + C#Cc1c(F)ccc2cc(O)cc(-c3ncc4c(N5CC6CCC(C5)N6)nc(OCC56CCCN5CC(F)C6)nc4c3F)c12 , reported viability, T/C: 55.7

Continuing:
Record summary for Cc1nc(N2CCC3(CC2)COC(C)C3N)c(CO)nc1Sc1ccnc(N)c1Cl (stereo not drawn) + C#Cc1c(F)ccc2cc(O)cc(-c3ncc4c(N5CC6CCC(C5)N6)nc(OCC56CCCN5CC(F)C6)nc4c3F)c12 : reported viability, T/C = 92.3

The reported viability, T/C of the molecule NC1c2ccccc2OC12CCN(c1cnc3c(N4CCCc5ncccc54)n[nH]c3n1)CC2 (stereo not drawn) + C=CC(=O)N1CCN(c2nc(OCC3CCCN3C)nc3c(F)c(-c4nc(N)cc(C)c4C(F)(F)F)c(Cl)cc23)C(C)C1 was 80.1

For C[C@@H](NC(=O)c1ncnc(N)c1Cl)c1ncc(C(=O)Nc2cc(C(F)(F)F)c(Cl)cn2)s1 + C=CC(=O)N1CCN(c2nc(OCC3CCCN3C)nc3c(F)c(-c4nc(N)cc(C)c4C(F)(F)F)c(Cl)cc23)C(C)C1 the molecule record lists viability, T/C as 107

----------
test system: 695427-040-R-J1-PDC complex spheroid viability; assay: Anticancer human tumor 695427-040-R-J1-PDC cell line growth inhibition [RAS]; details: second compound 0.3 µM; first compound 0.0316 µM; stronger effect = lower value;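 further: viability read after seven days of drug exposure; 100% = DMSO vehicle control viability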
viability, T/C for assorted compounds
Just the number please, in %, no unit attached.

The compound CC(Nc1ccc2c(c1)OCCn1cc(N3C(=O)OCC3C(F)F)nc1-2)C(N)=O (configuration not stated) + CCn1c(-c2cc(N3CCN(C)CC3)cnc2C(C)OC)c2c3cc(ccc31)-c1csc(n1)CC(NC(=O)C1CC1C)C(=O)N1CCCC(N1)C(=O)OCC(C)(C)C2 showed viability, T/C equal to 36.1

Then there is this compound:
The reported value for C[C@@H](NC(=O)c1ncnc(N)c1Cl)c1ncc(C(=O)Nc2cc(C(F)(F)F)c(Cl)cn2)s1 + CCn1c(-c2cc(N3CCN(C)CC3)cnc2C(C)OC)c2c3cc(ccc31)-c1csc(n1)CC(NC(=O)C1CC1C)C(=O)N1CCCC(N1)C(=O)OCC(C)(C)C2 in terms of viability, T/C is 36.4

----------
Attribute: viability, T/C
system: 695427-040-R-J1-PDC complex spheroid viability; assay: Anticancer human tumor 695427-040-R-J1-PDC cell line growth inhibition [RAS]; conditions: second compound 1 µM; first compound 0.0316 µM; stronger effect = lower value;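 further: viability read after seven days of drug exposure; 100% = DMSO vehicle control viability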
Give just the numeric value; % need not be written.

Entry under test: Nc1ccn(C2OC(CO)C(O)C2(F)F)c(=O)n1 (stereo not given) + C=CC(=O)N1CCN(c2nc(OCC3CCCN3C)nc3c(F)c(-c4nc(N)cc(C)c4C(F)(F)F)c(Cl)cc23)C(C)C1 . Its viability, T/C was 77.9

For reference, reported viability, T/C for CC(=O)OC12COC1CC(O)C1(C)C(=O)C(O)C3=C(C)C(OC(=O)C(O)C(NC(=O)OC(C)(C)C)c4ccccc4)CC(O)(C(OC(=O)c4ccccc4)C21)C3(C)C (stereo not given) + C=CC(=O)N1CCN(c2nc(OCC3CCCN3C)nc3c(F)c(-c4nc(N)cc(C)c4C(F)(F)F)c(Cl)cc23)C(C)C1 stands at 76.4

The value of viability, T/C measured for the compound Cc1nc(N2CCC3(CC2)COC(C)C3N)c(CO)nc1Sc1ccnc(N)c1Cl (stereo not given) + C#Cc1c(F)ccc2cc(O)cc(-c3ncc4c(N5CC6CCC(C5)N6)nc(OCC56CCCN5CC(F)C6)nc4c3F)c12 turned out to be 65.8

Field viability, T/C (entry C=CC(=O)Nc1cc(Nc2nccc(-c3cn(C)c4ccccc34)n2)c(OC)cc1N(C)CCN(C)C + C#Cc1c(F)ccc2cc(O)cc(-c3ncc4c(N5CC6CCC(C5)N6)nc(OCC56CCCN5CC(F)C6)nc4c3F)c12 ) reads 68.9

Continuing:
What the record says about Nc1ccn(C2OC(CO)C(O)C2(F)F)c(=O)n1 (stereo not given) + C#Cc1c(F)ccc2cc(O)cc(-c3ncc4c(N5CC6CCC(C5)N6)nc(OCC56CCCN5CC(F)C6)nc4c3F)c12 : viability, T/C is 69.5

----------
system: 695427-040-R-J1-PDC complex spheroid viability; experiment: Anticancer human tumor 695427-040-R-J1-PDC cell line growth inhibition [RAS]; conditions: second compound 0.3 µM; first compound 0.1 µM; stronger effect = lower value;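 further: viability read after seven days of drug exposure; 100% = DMSO vehicle control viability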
Test Readout: viability, T/C (%)
Write it as a number; the unit % goes unstated.

// field: viability, T/C; key: CCC(CC)c1cc(NC2CCC(N)C2)n2nccc2n1 (configuration not stated) + CCn1c(-c2cc(N3CCN(C)CC3)cnc2C(C)OC)c2c3cc(ccc31)-c1csc(n1)CC(NC(=O)C1CC1C)C(=O)N1CCCC(N1)C(=O)OCC(C)(C)C2 ; value = 39.4

Turning now to a further record.
molecule C=CC(=O)Nc1cc(Nc2nccc(-c3cn(C)c4ccccc34)n2)c(OC)cc1N(C)CCN(C)C + CCn1c(-c2cc(N3CCN(C)CC3)cnc2C(C)OC)c2c3cc(ccc31)-c1csc(n1)CC(NC(=O)C1CC1C)C(=O)N1CCCC(N1)C(=O)OCC(C)(C)C2 , viability, T/C observed: 30.1

----------
system: 695427-040-R-J1-PDC complex spheroid viability; assay: Anticancer human tumor 695427-040-R-J1-PDC cell line growth inhibition [RAS]; settings: second compound 0.1 µM; first compound 1 µM; active = viability on the fitted dose curve at most 10% of control; inactive = the rest;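 further: viability read after seven days of drug exposure; 100% = DMSO vehicle control viability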
Parameter call: string, one of active, inactive

Before answering, review these 5 worked examples.
Request: Fill in: this test's call for C=CC(=O)Nc1cc(Nc2nccc(-c3cn(C)c4ccccc34)n2)c(OC)cc1N(C)CCN(C)C + C#Cc1c(F)ccc2cc(O)cc(-c3ncc4c(N5CC6CCC(C5)N6)nc(OCC56CCCN5CC(F)C6)nc4c3F)c12 is ___
Response: inactive

Request: Please let me know the test result on file for CC(=O)OC12COC1CC(O)C1(C)C(=O)C(O)C3=C(C)C(OC(=O)C(O)C(NC(=O)OC(C)(C)C)c4ccccc4)CC(O)(C(OC(=O)c4ccccc4)C21)C3(C)C (stereo unspecified) + C#Cc1c(F)ccc2cc(O)cc(-c3ncc4c(N5CC6CCC(C5)N6)nc(OCC56CCCN5CC(F)C6)nc4c3F)c12 .
Response: inactive

Request: Hi team, can someone confirm the assay call for C=CC(=O)N1CCN(c2nc(OCC3CCCN3C)nc3c(F)c(-c4nc(N)cc(C)c4C(F)(F)F)c(Cl)cc23)C(C)C1 (stereo unspecified) + C#Cc1c(F)ccc2cc(O)cc(-c3ncc4c(N5CC6CCC(C5)N6)nc(OCC56CCCN5CC(F)C6)nc4c3F)c12 ?
Response: inactive

Request: Called result for NC1c2ccccc2OC12CCN(c1cnc3c(N4CCCc5ncccc54)n[nH]c3n1)CC2 (stereo unspecified) + C#Cc1c(F)ccc2cc(O)cc(-c3ncc4c(N5CC6CCC(C5)N6)nc(OCC56CCCN5CC(F)C6)nc4c3F)c12
Response: inactive

Request: GET /call?item= CC1(O)CCCC1n1c(=O)c(C(F)F)cc2cnc(NC3CCN(S(C)(=O)=O)CC3)nc21 (stereo unspecified) + C=CC(=O)N1CCN(c2nc(OCC3CCCN3C)nc3c(F)c(-c4nc(N)cc(C)c4C(F)(F)F)c(Cl)cc23)C(C)C1 returns the recorded outcome of this test.
Response: inactive

Further cases:
Request: Which outcome was assigned to O=C(c1ccc(F)c(F)c1Nc1ccc(I)cc1F)N1CC(O)([C@@H]2CCCCN2)C1 + C#Cc1c(F)ccc2cc(O)cc(-c3ncc4c(N5CC6CCC(C5)N6)nc(OCC56CCCN5CC(F)C6)nc4c3F)c12 in this test?
Response: active

The reported numbers originate from PubChem BioAssay AID2060888.
